System: EKVX NSCLC
Test: NCI-60 one-dose screen, 48 h (100 = growth as untreated, 0 = no growth, -100 = all killed)
Conditions: 10 µM unless noted
Compounds without any hit were thinned out: in the full panel of roughly 83,000, 20% have a hit. Active and inactive are the calls of the source. The calls were made as follows: active = growth percent below 10; inactive = the rest.
readout: growth

Solved cases below.
O=C(NNC(=O)c1nc2cc(F)ccc2n2cccc12)c1cnccn1 :: 29.2% (inactive)
CCOC(=O)c1c(C)c2c(n1Cc1ccccc1)CSCC2=O :: 12.4% [100 µM] (inactive)

With EKVX NSCLC as the test system, CC1CCN(C(=O)CCCl)c2ccccc21 (stereo not drawn) showed growth of 144% (inactive)
